assay.details: Chemical stability of the compound assessed as compound remaining at ambient relative humidity at 22 degC after 4 weeks by HPLC analysis
Format: physicochemical
conditions: read-out: Stability
measured.parameter: remaining at 672 h (%)
# number only, unit % dropped from output

// remaining at 672 h lookup, compound = Cc1cc(C)nc(N2C[C@H]3CN(C(=O)c4c(F)cccc4-n4nccn4)C[C@H]3C2)n1 , result: 100

* * *

assay.details: Fraction unbound in mouse plasma at 0.1 to 10 uM after 6 hrs by equilibrium dialysis method
Format: ADME, cell-free
measured.parameter: fraction unbound at 6 h
Reply with the value as a number alone.

GET /value?item= Cc1cc(C)nc(N2C[C@H]3CN(C(=O)c4c(F)cccc4-n4nccn4)C[C@H]3C2)n1 &field=fraction unbound at 6 h returns 0.041
